target.or.system: His-tag recombinant human C3 protein (Homo sapiens, UniProt P01024)
measurement.notes: BLI affinity assay (Bio-Layer Interferometry, Ni-NTA biosensor, ForteBio Octet)
Assay type: binding
Set-up: purchased Sino Biological Inc
details: dissociation rate constant, read-out: kdis
From the text: The BLI affinity assay was used to verify the effects of the cyclic peptides of the disclosure and the control product. BLI refers to Bio-Layer Interferometry. The principle is: after visible light is emitted from the spectrometer, two reflected spectra are formed at the two interfaces of the optical film layer at the end of the sensor, and an interference spectrum is formed. […]
Positions of bridges follow the written chain, without caps; N, C: chain ends. Non-standard residues stand in square brackets, D forms with d. Residues, ends and D or L forms follow the SMILES beside them. ξ: configuration not given here. Bpa = N[C@@H](Cc1ccc(C(=O)c2ccccc2)cc1)C(=O)O; Trp(1-Me) = Cn1cc(C[C@H](N)C(=O)O)c2ccccc21; ξTrp(5-F) = NC(Cc1c[nH]c2ccc(F)cc12)C(=O)O; 2Nal = N[C@@H](Cc1ccc2ccccc2c1)C(=O)O; Api = NC1(C(=O)O)CCNCC1; Abu = CC[C@H](N)C(=O)O; Aib = CC(C)(N)C(=O)O
endpoint.name: koff (s⁻¹)
Response body: numeric value in s⁻¹, unit text excluded.

Per the records, this compound ( CC[C@@H]1NC(=O)[C@@H](NC(=O)[C@@H](NC(C)=O)[C@@H](C)CC)CSSC[C@@H](C(=O)N[C@H](C(N)=O)[C@@H](C)O)NC(=O)[C@H](CCCNC(=N)N)NC(=O)[C@H](Cc2c[nH]cn2)NC(=O)C2(CCNCC2)NC(=O)CNC(=O)C(Cc2c[nH]c3ccc(F)cc23)NC(=O)[C@H](CC(=O)O)NC(=O)[C@H](CCC(N)=O)NC(=O)[C@H](Cc2cn(C)c3ccccc23)NC1=O (stereo partly shown) [SEQ ID NO.4] (Ac-IC[Abu][Trp(1-Me)]QD[ξTrp(5-F)]G[Api]HRCT-NH2; disulfide 2-12) ) has koff equal to 0.0393

Per the records, this compound ( CC[C@@H]1NC(=O)[C@@H](NC(=O)[C@@H](NC(C)=O)[C@@H](C)CC)CSSC[C@@H](C(=O)N[C@H](C(N)=O)[C@@H](C)O)NC(=O)[C@H](CCCNC(=N)N)NC(=O)[C@H](Cc2c[nH]cn2)NC(=O)C(C)(C)NC(=O)CNC(=O)C(Cc2c[nH]c3ccc(F)cc23)NC(=O)[C@H](CC(=O)O)NC(=O)[C@H](CCC(N)=O)NC(=O)[C@H](Cc2ccc3ccccc3c2)NC1=O (stereo partly shown) [SEQ ID NO.5] (Ac-IC[Abu][2Nal]QD[ξTrp(5-F)]G[Aib]HRCT-NH2; disulfide 2-12) ) has koff equal to 0.0296

Per the records, this compound ( CC[C@H](C)[C@H](NC(C)=O)C(=O)N[C@H]1CSSC[C@@H](C(=O)N[C@H](C(N)=O)[C@@H](C)O)NC(=O)[C@H](CCCNC(=N)N)NC(=O)[C@H](Cc2c[nH]cn2)NC(=O)C(C)(C)NC(=O)CNC(=O)[C@H](Cc2ccc3ccccc3c2)NC(=O)[C@H](CC(=O)O)NC(=O)[C@H](CCC(N)=O)NC(=O)[C@H](Cc2cn(C)c3ccccc23)NC(=O)[C@H](C(C)C)NC1=O [SEQ ID NO.1] (Ac-ICV[Trp(1-Me)]QD[2Nal]G[Aib]HRCT-NH2; disulfide 2-12) ) has koff equal to 0.0492

Per the records, this compound ( CC[C@H](C)[C@H](NC(C)=O)C(=O)N[C@H]1CSSC[C@@H](C(=O)N[C@H](C(N)=O)[C@@H](C)O)NC(=O)[C@H](CCCNC(=N)N)NC(=O)[C@H](Cc2c[nH]cn2)NC(=O)C(C)(C)NC(=O)CNC(=O)C(Cc2c[nH]c3ccc(F)cc23)NC(=O)[C@H](CC(=O)O)NC(=O)[C@H](CCC(N)=O)NC(=O)[C@H](Cc2ccc(C(=O)c3ccccc3)cc2)NC(=O)[C@H](Cc2ccc(O)cc2)NC1=O (stereo partly shown) [SEQ ID NO.6] (Ac-ICY[Bpa]QD[ξTrp(5-F)]G[Aib]HRCT-NH2; disulfide 2-12) ) has koff equal to 0.0369
